# Tested on: rabbit skeletal myofibrils (approximately 90% fast fibers)
# experiment-description: Activation of fast skeletal myofibrils (PUMA coupled-enzyme ATPase assay at pCa25)
# Type: biochemical
# conditions-used: concentration at which the compound increased the enzymatic activity by 40%; calcium at pCa25; PM12 buffer pH 6.8
endpoint: Mean AC1.4

Below are worked cases with known answers.
INSERT INTO measurements (query_smiles, meas_value) VALUES
  ('Cc1nc(NC[C@]2(c3ncccc3F)C[C@H](F)C2)ncc1-c1ccc(CC(N)=O)cc1', 'B (B=1-10 uM)'),
  ('CS(=O)(=O)N1CC(NC(=O)c2ccc(F)c(-c3cnc(NC[C@]4(c5ncccc5F)C[C@H](F)C4)nc3)c2)C1', '6 µM'),
  ('NC(=O)Cc1cnc(-c2cnc(NC[C@]3(c4ncccc4Cl)C[C@H](F)C3)nc2)s1', 'B (B=1-10 uM)'),
  ('CC(C)(CNc1ncc(-c2ccc(C(N)=O)cc2)cn1)c1ccc(F)cc1', 'B (B=1-10 uM)'),
  ('Cc1nc(NC[C@]2(c3ncccc3F)C[C@H](F)C2)ncc1-c1ccc(C#N)cc1', 'D (D=>20 uM)');

I have 2 molecules here; please give me Mean AC1.4 for each one.
1. CC(C)(CNc1ncc(C(=O)NC2(C(=O)O)CC2)cn1)c1ccc(F)cc1
2. O=C(NC1(c2ccc(F)cc2)CCC1)c1cnc(NC2(c3ccc(F)cc3)CCC2)nc1C(F)(F)F

*A*
D (D=>20 uM)
D (D=>20 uM)

###

# System: rabbit skeletal myofibrils (approximately 90% fast fibers)
# experiment-description: Activation of fast skeletal myofibrils (PUMA coupled-enzyme ATPase assay at pCa25)
# Format: biochemical
# conditions-used: concentration at which the compound increased the enzymatic activity by 40%; calcium at pCa25; PM12 buffer pH 6.8
endpoint: Mean AC1.4

Below are worked cases with known answers.
INSERT INTO measurements (compound, endpoint, meas_value) VALUES
  ('Nc1ncc(-c2cnc(NC[C@]3(c4ncccc4F)C[C@H](F)C3)nc2)cn1', 'Mean AC1.4', 'B (B=1-10 uM)'),
  ('COC(=O)c1cc(-c2cnc(NC(C)(C)c3ncccc3Cl)nc2)ncn1', 'Mean AC1.4', 'D (D=>20 uM)'),
  ('O=C(Nc1cnc(NCC2(c3ncccc3F)CCC2)nc1)Nc1nccs1', 'Mean AC1.4', 'B (B=1-10 uM)'),
  ('NC(=O)c1cccc(-c2cnc(NCC3(c4ccccn4)CCC3)nc2)c1', 'Mean AC1.4', 'B (B=1-10 uM)'),
  ('C[S+]([O-])c1ccccc1C(C)(C)Nc1ncc(-c2cccc(C(N)=O)c2)cn1 (stereo not shown)', 'Mean AC1.4', 'D (D=>20 uM)');

I have 3 compounds here; please give me Mean AC1.4 for each one.
1. CC(C)(Nc1ncc(-c2cn3ccc(C(N)=O)cc3n2)cn1)c1ncccc1Cl
2. CC(C)[C@H](Nc1ncc(-c2ncc(C#N)s2)cn1)c1ncccc1Cl
3. O=c1cc(O)ccn1-c1cnc(NC[C@]2(c3ncccc3F)C[C@H](F)C2)nc1

*A*
["D (D=>20 uM)", "D (D=>20 uM)", "D (D=>20 uM)"]

###

# Test system: rabbit skeletal myofibrils (approximately 90% fast fibers)
# experiment-description: Activation of fast skeletal myofibrils (PUMA coupled-enzyme ATPase assay at pCa25)
# Format: biochemical
# conditions-used: concentration at which the compound increased the enzymatic activity by 40%; calcium at pCa25; PM12 buffer pH 6.8
endpoint: Mean AC1.4

INSERT INTO measurements (query_smiles, measured_target, endpoint, meas_value) VALUES
  ('CN1CC(NC(=O)c2ccc(F)c(-c3cnc(NC[C@]4(c5ncccc5F)C[C@H](F)C4)nc3)c2)C1', 'rabbit skeletal myofibrils (approximately 90% fast fibers)', 'Mean AC1.4', 'B (B=1-10 uM)'),
  ('CC(C)(Nc1ncc(-c2cc(C(N)=O)ccc2F)cn1)c1ncccc1F', 'rabbit skeletal myofibrils (approximately 90% fast fibers)', 'Mean AC1.4', 'B (B=1-10 uM)'),
  ('CC(C)(Nc1ncc(-c2ccc(C(N)=O)s2)cn1)c1ncccc1Cl', 'rabbit skeletal myofibrils (approximately 90% fast fibers)', 'Mean AC1.4', 'B (B=1-10 uM)');
